inhibition at 100 µM by entry:
- target-or-system: Amine oxidase [flavin-containing] A (Homo sapiens)
- Sequence (P21397 whole entry): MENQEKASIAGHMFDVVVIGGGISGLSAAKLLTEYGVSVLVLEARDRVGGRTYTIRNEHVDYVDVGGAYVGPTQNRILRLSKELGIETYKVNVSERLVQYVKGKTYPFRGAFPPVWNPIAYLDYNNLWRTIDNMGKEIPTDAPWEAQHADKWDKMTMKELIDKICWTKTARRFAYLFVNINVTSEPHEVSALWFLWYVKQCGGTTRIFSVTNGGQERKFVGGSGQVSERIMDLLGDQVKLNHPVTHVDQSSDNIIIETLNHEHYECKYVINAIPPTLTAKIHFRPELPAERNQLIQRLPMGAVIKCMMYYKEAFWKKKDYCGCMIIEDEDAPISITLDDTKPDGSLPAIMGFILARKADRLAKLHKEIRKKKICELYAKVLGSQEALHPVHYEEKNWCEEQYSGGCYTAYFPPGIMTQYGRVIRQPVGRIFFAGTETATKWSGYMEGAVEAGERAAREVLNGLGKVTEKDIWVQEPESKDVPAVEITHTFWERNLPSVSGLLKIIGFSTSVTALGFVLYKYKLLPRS
- method-description: Inhibition of human recombinant MAO-A expressed in baculovirus infected BTI-TN-5B1-4 insect cells assessed as inhibition of hydrogen peroxide production from […] at 100 uM after 15 mins by fluorimetric method
- cond: BTI-TN-5B1-4, human, 0.25 h
measured-parameter: inhibition at 100 µM (%)

smiles-structure: Fc1ccc(-c2csc(N/N=C/c3ccccc3)n2)cc1
measured-parameter: inhibition at 100 µM
numeric-readout: 40
--
smiles-structure: Cc1ccccc1/C=N/Nc1nc(-c2ccc(F)cc2)cs1
measured-parameter: inhibition at 100 µM
numeric-readout: 40
--
smiles-structure: Clc1ccc(-c2csc(N/N=C/c3ccccc3)n2)cc1
measured-parameter: inhibition at 100 µM
numeric-readout: 40
--
smiles-structure: COc1ccc(/C=N/Nc2nc(-c3ccc(Cl)cc3)cs2)cc1
measured-parameter: inhibition at 100 µM
numeric-readout: 40
--
smiles-structure: COc1ccc(/C=N/Nc2nc(-c3ccc(Cl)cc3)cs2)cc1OC
measured-parameter: inhibition at 100 µM
numeric-readout: 40
--
smiles-structure: Fc1ccc(-c2csc(N/N=C/c3ccc(Cl)cc3)n2)cc1
measured-parameter: inhibition at 100 µM
numeric-readout: 40
--
smiles-structure: COc1ccc(/C=N/Nc2nc(-c3ccc(F)cc3)cs2)cc1
measured-parameter: inhibition at 100 µM
numeric-readout: 40
--
smiles-structure: COc1ccc(/C=N/Nc2nc(-c3ccc(F)cc3)cs2)cc1OC
measured-parameter: inhibition at 100 µM
numeric-readout: 40
--
smiles-structure: Cc1ccccc1/C=N/Nc1nc(-c2ccc(Cl)cc2)cs1
measured-parameter: inhibition at 100 µM
numeric-readout: 40
--
smiles-structure: Clc1ccc(/C=N/Nc2nc(-c3ccc(Cl)cc3)cs2)cc1
measured-parameter: inhibition at 100 µM
numeric-readout: 40

----------
- target-or-system: UniProt P27338
- Sequence (P27338 whole entry): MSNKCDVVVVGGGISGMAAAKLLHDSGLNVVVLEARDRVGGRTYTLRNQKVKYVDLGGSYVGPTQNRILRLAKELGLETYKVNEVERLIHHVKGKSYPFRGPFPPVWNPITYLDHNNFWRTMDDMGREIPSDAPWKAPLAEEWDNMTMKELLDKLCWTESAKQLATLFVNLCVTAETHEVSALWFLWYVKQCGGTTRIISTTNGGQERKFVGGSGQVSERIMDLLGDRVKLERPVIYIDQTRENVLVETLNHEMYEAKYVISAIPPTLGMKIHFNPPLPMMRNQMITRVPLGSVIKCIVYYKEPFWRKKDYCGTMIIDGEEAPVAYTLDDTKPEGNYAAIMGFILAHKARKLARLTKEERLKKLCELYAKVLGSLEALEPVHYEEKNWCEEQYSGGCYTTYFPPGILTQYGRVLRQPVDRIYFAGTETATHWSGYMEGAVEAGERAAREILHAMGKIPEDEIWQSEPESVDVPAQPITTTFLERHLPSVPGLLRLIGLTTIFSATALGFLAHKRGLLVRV
pIC50: −log10 of the molar value.
pIC50 by entry:

smiles-structure: Cc1ccccc1/C=N/Nc1nc(-c2ccc(F)cc2)cs1
target-or-system: UniProt P27338
pIC50: 6.72

smiles-structure: COc1ccc(/C=N/Nc2nc(-c3ccc(F)cc3)cs2)cc1OC
target-or-system: UniProt P27338
pIC50: 5.62
